- Test system: S. aureus IPM-24 (MRSA)
MIC values, listed per item

molecule | unit of measure | censoring operator | MIC
COC1=C(C=O)C(C)C23OC24c2cc(OC(C)=O)c5c(c2NC3C#CC=CC#CC14)C(=O)c1c(OC(C)=O)ccc(OC(C)=O)c1C5=O (stereo not shown) [Dynemicin C triacetate] | ng/mL | = | 0.4
COC1=C(C=O)C(C)C23OC24c2cc(O)c5c(c2NC3C#CC=CC#CC14)C(=O)c1c(O)ccc(O)c1C5=O (stereo not shown) | ng/mL | < | 0.2
COC1=C(C(=O)O)C(C)C23OC24c2cc(O)c5c(c2NC3C#CC=CC#CC14)C(=O)c1c(O)ccc(O)c1C5=O (stereo not shown) [Dynemicin A, reference compound] | ng/mL | < | 0.025
NCC[C@H](O)C(=O)N[C@@H]1C[C@H](N)[C@@H](O[C@H]2O[C@H](CN)[C@@H](O)[C@H](O)[C@H]2O)[C@H](O)[C@H]1O[C@H]1O[C@H](CO)[C@@H](O)[C@H](N)[C@H]1O [Amikacin, reference compound] | ng/mL | = | 100000
